# Tested on: wheals induced by intradermal injections of 1γ of histamine
# test_details: reduction by 50% of wheals induced by intradermal injections of histamine in guinea pigs
# Format: in vivo
# measurement_setup: Cavia porcellus, po, 1 h, orally administered one hour prior to intradermal injection of 1γ histamine, read-out: ED50 (amount of compound required to reduce by 50% wheals induced by intradermal injections of histamine)
# Excerpt: To illustrate the utility of the compounds of this invention the following tabulation indicates the amount of certain representative compounds of this invention required to reduce by 50% wheals induced by intradermal injections of 1γ of histamine into guinea pigs. Each compound was orally administered one hour prior to the histamine injection.
Exam item: assign t to entries whose ED50 is below 4 mg/kg and f to entries at or above 4 mg/kg. Note that a value of exactly 4 mg/kg receives f.

Observe how each entry below is paired with its result.
[
  {
    "compound": "Cl.O=C(CCCN1CCC(C(O)(c2ccccc2)c2ccccc2)CC1)c1ccc(C2CCCC2)cc1",
    "label_class": "t"
  },
  {
    "compound": "CC(C)(C)c1ccc(C(=O)CCCN2CCC(C(O)(c3ccccc3)c3ccc(Cl)cc3)CC2)cc1.Cl (stereo not drawn)",
    "label_class": "f"
  },
  {
    "compound": "Cc1ccc(C(O)(c2ccccc2)C2CCN(CCCC(=O)c3ccc(C(C)(C)C)cc3)CC2)cc1.Cl (stereo not drawn)",
    "label_class": "f"
  }
]

# input Regarding CC(C)(C)Cc1ccc(C(=O)CCCN2CCC(C(O)(c3ccccc3)c3ccccc3)CC2)cc1.Cl , kindly confirm whether its ED50 is beneath 4 mg/kg.
# output t

# input Would you kindly verify if ED50 of Cl.O=C(CCCN1CCC(C(O)(c2ccccc2)c2ccccc2)CC1)c1ccc2ccccc2c1 is strictly less than 4 mg/kg?
# output t

All figures here come from patent US3931197A.
